# target.or.system: T1, human IL-18BP (human, UniProt O95998 31-194)
# T1 construct: UniProt printed as 095998; also called hIL-18BP
# T1 sequence: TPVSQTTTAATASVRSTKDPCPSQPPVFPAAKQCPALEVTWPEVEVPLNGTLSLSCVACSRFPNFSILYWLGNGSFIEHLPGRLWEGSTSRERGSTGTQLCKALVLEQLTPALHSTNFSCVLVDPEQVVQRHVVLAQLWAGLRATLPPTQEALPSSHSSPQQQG
# protocol: BLI, apparent KD
observation.type: pKd
Give bare numbers, as −log10 of the molar value.

Hey, can you go through the list below and give me pKd for every item?
1. SA302a HC-H35N (antibody, V domains shown) VH: QVQLQESGPGLVKPSQTLSLTCTVSGYSITSDYNANWIRQPPGKGLEWIGYIHYSGSTNYNPSLKSRVTISRDTSKNQFSLKLSSVTAADTAVYYCARNYGSIYVNYFDYWGQGTLVTVSS VL: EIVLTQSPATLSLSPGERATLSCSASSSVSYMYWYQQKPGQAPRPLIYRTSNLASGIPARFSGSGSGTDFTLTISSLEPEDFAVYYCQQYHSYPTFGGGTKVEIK
2. SA302a HC-N33bH (antibody, V domains shown) VH: QVQLQESGPGLVKPSQTLSLTCTVSGYSITSDYHAHWIRQPPGKGLEWIGYIHYSGSTNYNPSLKSRVTISRDTSKNQFSLKLSSVTAADTAVYYCARNYGSIYVNYFDYWGQGTLVTVSS VL: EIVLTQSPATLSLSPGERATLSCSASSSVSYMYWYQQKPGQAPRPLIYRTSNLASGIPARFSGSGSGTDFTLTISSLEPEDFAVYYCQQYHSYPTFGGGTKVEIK
3. SA302a HC-D33H (antibody, V domains shown) VH: QVQLQESGPGLVKPSQTLSLTCTVSGYSITSHYNAHWIRQPPGKGLEWIGYIHYSGSTNYNPSLKSRVTISRDTSKNQFSLKLSSVTAADTAVYYCARNYGSIYVNYFDYWGQGTLVTVSS VL: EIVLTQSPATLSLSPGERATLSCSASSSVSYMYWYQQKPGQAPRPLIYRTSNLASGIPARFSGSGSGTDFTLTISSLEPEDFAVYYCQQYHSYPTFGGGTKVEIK

Result:
1. 8.52
2. 8.54
3. 8.52
